Attribute: TL1A Binding Level (Late)
Target: T1, human TL1A extracellular domain with N-terminal HIS and FLAG tag (human, UniProt O95150 72-251)
T1 construct: the whole entry is named; also called TNFSF15
T1 sequence: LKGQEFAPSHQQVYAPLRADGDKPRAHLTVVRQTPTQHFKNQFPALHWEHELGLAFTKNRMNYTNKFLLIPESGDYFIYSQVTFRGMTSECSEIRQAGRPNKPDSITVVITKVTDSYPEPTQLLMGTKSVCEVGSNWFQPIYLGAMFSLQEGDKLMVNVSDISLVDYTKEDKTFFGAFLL
Assay: SPR Run 9, antibody on Protein A, TL1A 5 ug/mL, timepoint 590
Only the number, expressed in RU, is required.

| binder | u | TL1A Binding Level (Late) |
| --- | --- | --- |
| 320-597 (antibody, human IgG1, name in Kabat numbering, V domains shown, full-length human IgG1, lambda) VH: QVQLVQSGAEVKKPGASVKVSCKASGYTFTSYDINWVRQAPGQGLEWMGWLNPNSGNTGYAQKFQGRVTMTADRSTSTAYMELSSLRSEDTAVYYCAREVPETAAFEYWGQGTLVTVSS VL: QSVLTQPPSVSGAPGQRVTISCTSSSSDIGAGQGVHWYQQLPGTAPKLLIEGYYNRPSGVPDRFSGSKSGTSASLTITGLLPEDEGDYYCQSFDGTLSALFGGGTKLTVLG | RU | 105 |

Query block: Entry 320-615 (antibody, human IgG1, name in Kabat numbering, V domains shown, full-length human IgG1, lambda) VH: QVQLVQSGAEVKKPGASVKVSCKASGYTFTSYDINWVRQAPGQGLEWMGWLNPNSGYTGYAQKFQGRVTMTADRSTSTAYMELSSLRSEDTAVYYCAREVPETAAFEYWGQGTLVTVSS VL: QSVLTQPPSVSGAPGQRVTISCTSSSSDIGAGLGVHWYQQLPGTAPKLLIEGYYNRPSGVPDRFSGSKSGTSASLTITGLLPEDEGDYYCQSYDYTLSALFGGGTKLTVLG : reported TL1A Binding Level (Late) = ?
Result block: 108

Query block: Given the entry 320-602 (antibody, human IgG1, name in Kabat numbering, V domains shown, full-length human IgG1, lambda) VH: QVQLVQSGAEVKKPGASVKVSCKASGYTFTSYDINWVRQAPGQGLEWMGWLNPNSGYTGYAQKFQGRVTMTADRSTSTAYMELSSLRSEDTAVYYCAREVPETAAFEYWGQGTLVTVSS VL: QSVLTQPPSVSGAPGQRVTISCTSSSSDIGAGQGVHWYQQLPGTAPKLLIEGYYNRPSGVPDRFSGSKSGTSASLTITGLLPEDEGDYYCQSFDGTLSALFGGGTKLTVLG , report its measured TL1A Binding Level (Late).
Result block: 125

These data points were gathered from patent US20170081400A1.
